Could you please report measured protein stability index for the items listed next?
B1: MED27 (parent)
chain: YNENVYTEDGKLDIWSKSNYQVFQ

Variants of: B1
ASSAY EXPLANATION: protein stability index of a GFP-peptide fusion (GPS, HEK-293T) (PSI 1-6); higher = more stable;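 further: lentivirally expressed fusions sorted by FACS into six bins by GFP to DsRed ratio, PSI derived from sequencing read proportions per bin multiplied by bin number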
TEST CONDITIONS: c terminus: a fixed tail appended
Please reply with the number alone, leaving off any unit.

// protein stability index lookup, variant = K17W , result: 1.92

Per the record, D13R has protein stability index of 2.32

Lab note: measured protein stability index of E3W was 1.44

Documented protein stability index of T7E : 2.96
